Target: huCD28 (human, UniProt P10747 19-152, limits assumed)
Experiment: SPR, OAA format
reportedEndpoint: koff (s⁻¹)
Reply with just the number (in s⁻¹).

For record v37845 (antibody, V domains shown, OAA format; also called huTN228 Y1037A (VH) OAA) VH: QVQLQESGPGLVKPSETLSLTCAVSGFSLTSAGVHWIRQPPGKGLEWLGVIWPGGGTNFNSALMSRLTISEDTSKNQVSLKLSSVTAADTAVYYCARDRAYGNYLYAMDYWGQGTLVTVSS VL: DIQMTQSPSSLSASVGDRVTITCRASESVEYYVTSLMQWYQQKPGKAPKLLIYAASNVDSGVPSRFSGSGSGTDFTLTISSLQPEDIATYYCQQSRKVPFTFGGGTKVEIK the listed koff is 0.0139
